- assayed_target: β 1i (Homo sapiens, UniProt P28065+P40306)
- Construct: protease activity associated with the proteasome complex in cultured cells; endogenous in cells
- run_description: Cell-Based Proteasome Activity/Selectivity Assay, Ramos cells, substrate (PAL)2Rh110
- experimental_setup: β1i substrate (PAL)2Rh110
- Source text: Cell-Based Proteasome Activity/Selectivity Assay The Cell-Based Proteasome subunit activity/selectivity assay was a panel of 5 fluorogenic assays that independently measured the activity of β5c or β 5i (chymotrypsin-like activity), β2c/2i (trypsin-like), and β 1c or β 1i (caspase-like) protease activity associated with the proteasome complex in cultured cells. […]
experimental_readout: IC50 (nM)
A number alone suffices; assume nM.

## Input Reported IC50, compound C[C@@H]1NC(=O)CCc2cccc(c2)-c2cccc(c2)CC[C@@H](C(=O)N[C@@H](Cc2ccccc2)C(=O)C(=O)NCc2ccccc2)NC1=O [Example 1] : ____
## Output 1970
